Data provenance is PubChem BioAssay.

Entries and their measured composite z-score follow.
assay: compound binding in COS7 lysate, probe aLAP1, primary screen, cell lysate, small-molecule microarray (AID 1124); conditions: probe aLAP1, fluorescence, higher = more signal;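 note: lysate comes from COS7 cells expressing LAP1 and is applied at 0.3 µg/mL; score merges spot fluorescence near 667 nm with signal-to-noise over triplicate slides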

Observe how each entry below is paired with its result.
mol	observed property	value observed
C[C@@H](c1ccccc1)N1C(=O)[C@H]2[C@H]3[C@H](O)[C@H](O)CC(=NNC(=O)OCc4ccccc4)[C@H]3CC[C@H]2C1=O	composite z-score	0.221
CC(C)[Si]1(C(C)C)O[C@@H](c2ccccc2)c2cc(C3CC3)nc(-c3ccccc3)c21	composite z-score	0.202

Exam item: I have this molecule here, `C#CCCCON=C1C[C@@H](O)[C@@H](O)[C@@H]2[C@@H]3C(=O)N([C@@H](C)c4ccccc4)C(=O)[C@@H]3CC[C@H]12` , and I need its recorded composite z-score.
Marked response: 0.0595
